Origin of the recorded values: paper PMC6154613

# TEST NAME: Mammalian cytotoxicity, MTT assay
# Format: cell-based, murine
# ASSAY CONDITIONS: mouse, NCTC clone L929 fibroblasts; NCTC murine fibroblasts, 48 h, MTT; value (SD)

COMPOUND	CC50 at 48 h
C=C(CO)C(=O)O[C@H]1CC(=C)[C@@H]2C[C@H](O)C(=C)[C@@H]2[C@H]2OC(=O)C(=C)[C@@H]21	33.5 µM
C=C1C(=O)O[C@H]2[C@H]1CC/C(C)=C/CC[C@@]1(C)O[C@@H]21 [Parthenolide (6), Parthenolide]	58.2 µM
C=C1C(=O)O[C@@H]2C[C@@]3(C)CCC[C@H](C)C3=C[C@H]12	11 µM

---

# TEST NAME: Mammalian cytotoxicity, MTT assay
# Assay type: cell-based, murine
# ASSAY CONDITIONS: mouse; NCTC murine fibroblasts, 48 h, MTT; value (SD)

COMPOUND	CC50
C=C1C(=O)OC2CC(C)C3C=CC(=O)C3(C)C(OC(C)=O)C12 (stereo not shown) [Helenalin acetate (1), Helenalin acetate]	8.12 µM
C=C1C(=O)O[C@@H]2/C=C(/CO)C3=CC(=O)[C@@](C)(C[C@@H](OC(=O)/C(C)=C/C)[C@@H]12)O3 [Budlein A (7), Budlein A]	9.05 µM
C=C1C(=O)O[C@@H]2[C@H]3C(C)=CC[C@@]34O[C@@]4(C)CC[C@@H]12 [Arglabin (3), Arglabin]	39.4 µM
C=C1C(=O)O[C@H]2C[C@@H](C)[C@@H]3C=CC(=O)[C@@]3(C)[C@H](O)[C@H]12 [Mexicanin I (2), Mexicanin I]	9.2 µM

---

# Test system: L. (L.) infantum intracellular amastigotes
# TEST NAME: Activity against intracellular amastigotes in peritoneal macrophages, Giemsa staining and light microscopy
# Assay type: cell-based, Leishmania (Leishmania) infantum
# ASSAY CONDITIONS: Leishmania infantum, Peritoneal macrophage; intracellular amastigotes in murine peritoneal macrophages, 120 h; highest concentration 100 μM; value (SD)
Under this convention, Criterion met denotes IC50 strictly below 7 µM and Criterion not met denotes IC50 at or above 7 µM.

COMPOUND	CAT
C=C1C(=O)O[C@@H]2[C@H]3C(C)=CC[C@@]34O[C@@]4(C)CC[C@@H]12 [Arglabin (3), Arglabin]	Criterion not met
C=C1C(=O)O[C@H]2[C@H]1CC/C(C)=C/CC[C@@]1(C)O[C@@H]21 [Parthenolide (6), Parthenolide]	Criterion not met
C=C1C(=O)OC2CC(C)C3C=CC(=O)C3(C)C(OC(C)=O)C12 (centres unmarked) [Helenalin acetate (1), Helenalin acetate]	Criterion met
C=C1C(=O)O[C@H]2C[C@@H](C)[C@@H]3C=CC(=O)[C@@]3(C)[C@H](O)[C@H]12 [Mexicanin I (2), Mexicanin I]	Criterion met
